Biological target: T1, human Siglec-5 expressed on human primary cells (human, UniProt O15389 17-551)
T1 construct: Endogenous receptor on human primary monocytes, dendritic cells, macrophages and neutrophils; also called CD170
T1 sequence: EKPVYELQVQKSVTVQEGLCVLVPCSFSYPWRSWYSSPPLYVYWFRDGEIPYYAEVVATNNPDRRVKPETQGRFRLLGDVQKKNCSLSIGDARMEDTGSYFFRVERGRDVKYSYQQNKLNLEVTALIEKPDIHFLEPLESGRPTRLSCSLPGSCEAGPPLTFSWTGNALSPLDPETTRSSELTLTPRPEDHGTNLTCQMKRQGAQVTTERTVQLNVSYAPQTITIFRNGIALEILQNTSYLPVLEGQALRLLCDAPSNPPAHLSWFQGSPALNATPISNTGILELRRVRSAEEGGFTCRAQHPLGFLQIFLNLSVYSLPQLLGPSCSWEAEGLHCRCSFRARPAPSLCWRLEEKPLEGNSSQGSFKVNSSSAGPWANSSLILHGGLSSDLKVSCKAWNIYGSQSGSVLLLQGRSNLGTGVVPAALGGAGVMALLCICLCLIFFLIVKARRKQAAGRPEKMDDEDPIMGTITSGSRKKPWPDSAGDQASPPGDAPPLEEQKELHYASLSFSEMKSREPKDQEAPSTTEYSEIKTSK
Test: flow cytometry, human primary monocytes, 10 ug/ml mAb
ENDPOINT_LABEL: % Positive (%)
# unit: % | format: bare number

{"BINDER": "anti-Siglec-5 monoclonal antibody 9A5 (antibody, IgG1, V domains shown) VH: QVQLQQSGPELVEPGASVKVSCKASGYAFTSYNMYWVKQSHGKSLEWIGYIDPYNGGTYYDQKFKGRATLTVDKSSSTAHMHLNSLTSEDSAVYYCVFFYEYDGFPYWGQGTLVTVSA VL: DIVLTQSPTLMSASPGEKVTMTCSASSSVSYMYWYQQKPRSSPKPLIYLTSNLASGVPARFSGSGSGTSYSLTISSMEAEDAATYYCQQWSSNPLTFGAGTKLELK", "MEASUREMENT": 93.2}

// next entry
In: Let me know recorded % Positive for anti-Siglec-5 monoclonal antibody 7A5 (antibody, IgG1, V domains shown) VH: EIQLQQSGPELVKPGASVKVSCKASGYSFTDYNMYWVKQSHGKSLEWIGYIDPYNGGTTYNQKFKGKATLTVDKSSSTAFMHLNSLTSEDSAVFYCAFYYGYYGVPYWGQGTLVTVSA VL: DIVMIQSQKFMSTSVGDRVSVTCKASQNVDTNVAWYQQKPGQSPKALIYSASYRYSGVPDRFTGSGSGTDFTLTISNVQSEDLAEYFCQQYNSFPLTFGSGTKLEIK , thanks.
Out: 93.5

This collection of values is drawn from patent US20210017275A1.
